I'd appreciate it if you could supply pEC50 values for the items below.
Target: Type-1 angiotensin II receptor (Homo sapiens)
Sequence (P30556 whole entry): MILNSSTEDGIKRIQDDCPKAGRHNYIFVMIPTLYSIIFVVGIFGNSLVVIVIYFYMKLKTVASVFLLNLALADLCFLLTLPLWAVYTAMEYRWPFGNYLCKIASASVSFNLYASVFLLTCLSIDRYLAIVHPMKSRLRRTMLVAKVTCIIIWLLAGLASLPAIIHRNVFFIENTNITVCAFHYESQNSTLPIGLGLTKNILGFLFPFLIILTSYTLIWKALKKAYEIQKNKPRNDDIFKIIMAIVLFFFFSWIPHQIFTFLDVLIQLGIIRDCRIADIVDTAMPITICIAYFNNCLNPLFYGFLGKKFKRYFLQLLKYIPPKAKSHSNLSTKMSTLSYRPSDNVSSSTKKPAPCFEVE
Assay: agonist activity at AGTR1 – cell-based, uHTS hits, selectivity assay for APJ receptor agonist project, dose response (AID 488865)
pEC50: −log10 of the molar value.

Reported pEC50, molecule "CCCCCCC1=Cc2c/c(=C3/NN=C(c4cc(OC)c(OC)c(OC)c4)O3)c(=O)oc2=CC1=O" : ____
< 4.00

Reported pEC50, molecule CCOC(=O)C1C(Cn2cnc3ccccc32)=NC(=O)NC1c1cc(C)ccc1C (centres undefined) : ____
< 4.00

Reported pEC50, molecule COC(=O)C1C(Cn2cnc3ccccc32)=NC(=O)NC1c1cc(C)ccc1C (centres undefined) : ____
< 4.00

Reported pEC50, molecule "COc1ccc(CN=Nc2cc(C)nc3ccc(OC)cc23)c(OC)c1" : ____
< 4.00
